Test system: Radical scavenging activity
Assay: Antioxidant activity assessed as DPPH radical scavenging activity after 30 mins by spectrophotometry
Assay type: functional
MEASURED_ATTRIBUTE: IC50 (µM)
Write down the numeric answer in µM and omit the unit.

Could you share what IC50 was measured for `COc1ccc(CCOC(=O)/C=C/c2ccc(O)c(O)c2)cc1` , tested on Radical scavenging activity? 17.4

Could you share what IC50 was measured for `CCCOC(=O)/C=C/c1ccc(O)c(O)c1` , tested on Radical scavenging activity? 14.2

Could you share what IC50 was measured for CCCCOC(=O)/C=C/c1ccc(O)c(O)c1 [BUTYL CAFFEATE] , tested on Radical scavenging activity? 12.6

Could you share what IC50 was measured for O=C(/C=C/c1ccc(O)c(O)c1)NCCc1ccccc1 [CAFFEIC ACID PHENETHYL AMIDE] , tested on Radical scavenging activity? 13.8

Could you share what IC50 was measured for `O=C(/C=C/c1ccc(O)c(O)c1)OCCc1cccc2ccccc12` , tested on Radical scavenging activity? 13.2

Could you share what IC50 was measured for COC(=O)/C=C/c1ccc(O)c(O)c1 [METHYLCAFFEATE] , tested on Radical scavenging activity? 21.3

Could you share what IC50 was measured for `O=C(/C=C/c1ccc(O)c(O)c1)OCCc1ccccc1` , tested on Radical scavenging activity? 16.5

Could you share what IC50 was measured for `Cc1ccc(CCOC(=O)/C=C/c2ccc(O)c(O)c2)cc1` , tested on Radical scavenging activity? 11.3

Could you share what IC50 was measured for `C=C(C)CCOC(=O)/C=C/c1ccc(O)c(O)c1` , tested on Radical scavenging activity? 9.5

Could you share what IC50 was measured for O=C(/C=C/c1ccc(O)c(O)c1)OCc1ccccc1 [BENZYL CAFFEATE] , tested on Radical scavenging activity? 15.3

Could you share what IC50 was measured for `O=C(/C=C/c1ccc(O)c(O)c1)Oc1ccccc1` , tested on Radical scavenging activity? 12.5

Could you share what IC50 was measured for `O=C(/C=C/c1ccc(O)c(O)c1)OCCC1CCCCC1` , tested on Radical scavenging activity? 15.1

Could you share what IC50 was measured for `CC(C)CCOC(=O)/C=C/c1ccc(O)c(O)c1` , tested on Radical scavenging activity? 23.8

Could you share what IC50 was measured for `CC(C)OC(=O)/C=C/c1ccc(O)c(O)c1` , tested on Radical scavenging activity? 13

Could you share what IC50 was measured for `O=C(/C=C/c1ccc(O)c(O)c1)OCC(c1ccccc1)c1ccccc1` , tested on Radical scavenging activity? 18.5

Could you share what IC50 was measured for `O=C(O)/C=C/c1ccc(O)c(O)c1` , tested on Radical scavenging activity? 15.3

Could you share what IC50 was measured for `O=C(/C=C/c1ccc(O)c(O)c1)OCCc1ccc(F)cc1` , tested on Radical scavenging activity? 12.8

Could you share what IC50 was measured for CCOC(=O)/C=C/c1ccc(O)c(O)c1 [ETHYL CAFFEATE] , tested on Radical scavenging activity? 13.3

Could you share what IC50 was measured for `O=C(/C=C/c1ccc(O)c(O)c1)OCCCc1ccccc1` , tested on Radical scavenging activity? 11.9
